FYI, the data here is from BindingDB's records for doi:10.1016/j.bmcl.2009.04.040.

Molecular target: Proto-oncogene Wnt-3 (Homo sapiens)
Assay: Inhibition of Wnt3 expressed in mouse L-cells assessed as inhibition of Wnt/catanin signaling pathway by luciferase reporter gene assay
measure: EC50 (µM)

1) O=C(Nc1ccc(F)cc1)c1ccc(-n2c(O)c3c(c2O)[C@H]2C=C[C@@H]3C2)cc1    4
2) O=C(NC1CCCc2cccnc21)c1ccc(-n2c(O)c3c(c2O)[C@H]2C=C[C@@H]3C2)cc1 (some centres undefined)    10

[1] O=C(Nc1ccc(Br)cc1)c1ccc(-n2c(O)c3c(c2O)[C@H]2C=C[C@@H]3C2)cc1
[2] Cc1cc(-n2c(O)c3c(c2O)[C@H]2C=C[C@@H]3C2)ccc1C(=O)Nc1cccc2cccnc12
[3] O=C(Nc1cccc(C(F)(F)F)c1)c1ccc(-n2c(O)c3c(c2O)[C@H]2C=C[C@@H]3C2)cc1
Write the entries in order, lowest recorded EC50 first. Answer by listing the labels in the requested order.
1, 2, 3
(1: 1 µM, 2: 2 µM, 3: 20 µM)

[P] Cc1ccc2cccnc2c1NC(=O)[C@H]1CC[C@H](N2C(=O)[C@@H]3[C@H](C2=O)[C@@H]2C=C[C@H]3C2)CC1
[Q] CO[C@@H]1CCCC[C@H]1NC(=O)c1ccc(-n2c(O)c3c(c2O)[C@H]2C=C[C@@H]3C2)cc1
Which gives the smaller EC50 number: P or Q ? Which one? Tell me its label.
P

[A] Cc1ccnc2c(NC(=O)[C@H]3CC[C@H](N4C(=O)[C@@H]5[C@H](C4=O)[C@@H]4C=C[C@H]5C4)CC3)cccc12
[B] O=C(Nc1ccc(Br)c(Br)c1)c1ccc(-n2c(O)c3c(c2O)[C@H]2C=C[C@@H]3C2)cc1
I need your help: which of the pair A , B has higher EC50? State your choice using its label.
B
(B: 10 µM, A: 1 µM)

----------
Molecular target: Proto-oncogene Wnt-3 (Homo sapiens, UniProt P56703)
Sequence (P56703 whole entry): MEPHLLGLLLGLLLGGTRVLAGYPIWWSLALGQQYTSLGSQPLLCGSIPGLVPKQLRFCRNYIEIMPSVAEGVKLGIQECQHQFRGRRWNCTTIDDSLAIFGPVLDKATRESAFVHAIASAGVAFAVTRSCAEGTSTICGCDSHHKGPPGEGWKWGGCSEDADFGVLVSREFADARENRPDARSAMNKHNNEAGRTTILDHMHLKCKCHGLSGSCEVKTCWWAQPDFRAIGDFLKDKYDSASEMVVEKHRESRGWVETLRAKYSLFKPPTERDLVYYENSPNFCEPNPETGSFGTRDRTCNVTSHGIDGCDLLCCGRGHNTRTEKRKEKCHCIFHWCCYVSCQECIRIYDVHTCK
Test: Inhibition of Wnt3 expressed in mouse L-cells assessed as inhibition of Wnt/catanin signaling pathway by luciferase reporter gene assay
pEC50: −log10 of the molar value.
measure: pEC50

Reference set, count: 5
1) COc1cc(-n2c(O)c3c(c2O)[C@H]2C=C[C@@H]3C2)ccc1C(=O)Nc1cccc2cccnc12    < 4.60
2) O=C(Nc1ccc(F)c(F)c1)c1ccc(-n2c(O)c3c(c2O)[C@H]2C=C[C@@H]3C2)cc1    5.52
3) O=C(NCc1cccnc1)c1ccc(-n2c(O)c3c(c2O)[C@H]2C=C[C@@H]3C2)cc1    < 4.60
4) O=C(Nc1ccccc1Br)c1ccc(-n2c(O)c3c(c2O)[C@H]2C=C[C@@H]3C2)cc1    < 4.60
5) O=C(Nc1ccccc1F)c1ccc(-n2c(O)c3c(c2O)[C@H]2C=C[C@@H]3C2)cc1    < 4.60

If you can, please state the reported pEC50 value of `O=C1[C@@H]2[C@H](C(=O)N1[C@H]1CC[C@H](C(=O)Nc3cccc4cccnc34)CC1)[C@@H]1C=C[C@H]2C1` .
6.40

Please report the recorded pEC50 for `O=C(Nc1ccccc1)c1ccc(-n2c(O)c3c(c2O)[C@H]2C=C[C@H]3C2)cc1` .
< 4.60

----------
Target: Proto-oncogene Wnt-3 (Homo sapiens, UniProt P56703)
Test: Inhibition of Wnt3 expressed in mouse L-cells assessed as inhibition of Wnt/catanin signaling pathway by luciferase reporter gene assay
pEC50: −log10 of the molar value.
measure: pEC50

Solved cases below.
1) O=C(Nc1ccc(F)cc1F)c1ccc(-n2c(O)c3c(c2O)[C@H]2C=C[C@@H]3C2)cc1    5.05
2) O=C(Nc1cccc(Br)c1)c1ccc(-n2c(O)c3c(c2O)[C@H]2C=C[C@@H]3C2)cc1    5.05
3) O=C(Nc1ccc(Cl)cc1Cl)c1ccc(-n2c(O)c3c(c2O)[C@H]2C=C[C@@H]3C2)cc1    5.00
4) O=C(Nc1cccc2cccnc12)N1CCC(N2C(=O)[C@@H]3[C@H](C2=O)[C@@H]2C=C[C@H]3C2)CC1    5.00
5) O=C(NCc1ccccc1)c1ccc(-n2c(O)c3c(c2O)[C@H]2C=C[C@@H]3C2)cc1    4.70

[A] O=C(Nc1ccc(Cl)c(Cl)c1)c1ccc(-n2c(O)c3c(c2O)[C@H]2C=C[C@@H]3C2)cc1
[B] COc1ccccc1NC(=O)c1ccc(-n2c(O)c3c(c2O)[C@H]2C=C[C@@H]3C2)cc1
[C] O=C(NCc1ccncc1)c1ccc(-n2c(O)c3c(c2O)[C@H]2C=C[C@@H]3C2)cc1
# ascending order, key=pEC50 Enter labels, ranked according to the request.
C, A, B
